Target: UniProt:P51449
Sequence (P51449 other isoform, or with tags, fused parts or gaps): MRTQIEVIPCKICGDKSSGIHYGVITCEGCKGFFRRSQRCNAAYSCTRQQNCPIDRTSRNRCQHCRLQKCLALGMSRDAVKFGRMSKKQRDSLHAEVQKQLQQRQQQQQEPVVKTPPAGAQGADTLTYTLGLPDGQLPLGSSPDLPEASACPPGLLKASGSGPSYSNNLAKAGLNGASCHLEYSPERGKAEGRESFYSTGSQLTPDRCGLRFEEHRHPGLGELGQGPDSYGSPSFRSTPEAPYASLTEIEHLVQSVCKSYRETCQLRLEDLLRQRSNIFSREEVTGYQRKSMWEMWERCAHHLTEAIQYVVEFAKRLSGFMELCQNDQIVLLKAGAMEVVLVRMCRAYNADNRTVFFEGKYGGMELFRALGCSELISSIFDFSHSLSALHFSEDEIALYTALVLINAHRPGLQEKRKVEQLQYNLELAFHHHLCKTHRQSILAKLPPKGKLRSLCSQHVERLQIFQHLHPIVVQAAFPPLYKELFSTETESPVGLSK
Experiment: RORγt (full-length human) reporter assay, Conditions B or C
Assay type: cell-based
Settings: at 3 μM compound concentration; read-out: RORγt (FL) Reporter Assay B or C, % inhibition
Listed compounds paired with reported inhibition at 3 µM

- COMPOUND: "C[C@H]1CCCN1C(=O)c1nc(C(=O)NC2CCOCC2)sc1-c1cnc(NC(C)(C)C)cc1C(F)F [Example 412]"
  inhibition at 3 µM: "127%"
- COMPOUND: "C[C@H]1CCCN1C(=O)c1nc(C(=O)N2CC(O)C2)sc1-c1cnc(NC(C)(C)C)cc1C(F)(F)F [Example 250]"
  inhibition at 3 µM: "106%"
- COMPOUND: "C[C@H]1CCCN1C(=O)c1nc(C(=O)N[C@@H]2COC[C@H]2O)sc1-c1cnc(NC(C)(C)C)cc1C(F)F [Example 402]"
  inhibition at 3 µM: "99%"
- COMPOUND: "CC(C)(C)Nc1cc(C(F)F)c(-c2sc(C(=O)N[C@H]3CCC[C@@H]3O)nc2C(=O)N2C3CCC2CC3)cn1 [Example 440]"
  inhibition at 3 µM: "104%"
- COMPOUND: "O=C(N[C@@H]1CC[C@H]1O)c1nc(C(=O)N2C3CCC2CC3)c(-c2cnc(N[C@@H](C3CC3)C(F)(F)F)cc2C(F)F)s1 (relative stereo) [Example 443]"
  inhibition at 3 µM: "107%"
- COMPOUND: "C[C@@H](NC(=O)c1nc(C(=O)N2C3CCC2CC3)c(-c2cnc(N[C@@H](C3CC3)C(F)(F)F)cc2C(F)F)s1)C(C)(C)O [Example 316]"
  inhibition at 3 µM: "108%"

Cited source for all entries: patent US10975068B2
